The reader will find reported K0.5-mut/K0.5-wt values listed item by item below.
Biological target: plasma purified human AT-III (antithrombin III)
Experiment: AT-III/UFH inhibition K0.5, ratio to Catalyst Biosciences WT FIXa
Please reply with the number alone, leaving off any unit.

[[record]]
protein = "FIXa-K247N/N249S/R318Y/R338E/E410N (protein) chain 1: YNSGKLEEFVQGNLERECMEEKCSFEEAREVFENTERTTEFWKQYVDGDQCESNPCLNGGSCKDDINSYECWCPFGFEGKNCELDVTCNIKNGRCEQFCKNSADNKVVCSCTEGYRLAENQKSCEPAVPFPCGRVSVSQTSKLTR chain 2: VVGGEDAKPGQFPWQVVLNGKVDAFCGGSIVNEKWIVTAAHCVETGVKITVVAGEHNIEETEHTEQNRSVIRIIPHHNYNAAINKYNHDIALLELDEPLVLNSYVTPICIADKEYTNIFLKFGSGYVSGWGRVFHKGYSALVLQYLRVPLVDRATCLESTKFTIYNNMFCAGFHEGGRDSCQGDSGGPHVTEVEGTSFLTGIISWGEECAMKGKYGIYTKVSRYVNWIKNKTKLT"
numericreadout = 78.3


// next entry
Challenge: // lookup K0.5-mut/K0.5-wt for FIXa-Y155F/N260S/R318Y/R338E/R403E/E410N (protein) chain 1: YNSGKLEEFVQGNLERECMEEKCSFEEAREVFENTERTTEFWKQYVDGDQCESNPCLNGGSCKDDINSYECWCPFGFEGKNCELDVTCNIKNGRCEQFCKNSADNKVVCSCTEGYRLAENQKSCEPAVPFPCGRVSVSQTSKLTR chain 2: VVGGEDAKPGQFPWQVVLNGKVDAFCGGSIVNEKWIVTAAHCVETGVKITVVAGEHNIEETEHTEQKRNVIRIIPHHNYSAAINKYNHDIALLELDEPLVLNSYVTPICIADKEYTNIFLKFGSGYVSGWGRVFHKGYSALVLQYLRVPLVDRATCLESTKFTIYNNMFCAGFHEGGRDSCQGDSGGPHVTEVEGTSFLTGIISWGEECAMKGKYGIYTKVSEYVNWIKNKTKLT
Response given: 501
